assay.target: NEK2 (Homo sapiens)
Sequence (P51955 1-445): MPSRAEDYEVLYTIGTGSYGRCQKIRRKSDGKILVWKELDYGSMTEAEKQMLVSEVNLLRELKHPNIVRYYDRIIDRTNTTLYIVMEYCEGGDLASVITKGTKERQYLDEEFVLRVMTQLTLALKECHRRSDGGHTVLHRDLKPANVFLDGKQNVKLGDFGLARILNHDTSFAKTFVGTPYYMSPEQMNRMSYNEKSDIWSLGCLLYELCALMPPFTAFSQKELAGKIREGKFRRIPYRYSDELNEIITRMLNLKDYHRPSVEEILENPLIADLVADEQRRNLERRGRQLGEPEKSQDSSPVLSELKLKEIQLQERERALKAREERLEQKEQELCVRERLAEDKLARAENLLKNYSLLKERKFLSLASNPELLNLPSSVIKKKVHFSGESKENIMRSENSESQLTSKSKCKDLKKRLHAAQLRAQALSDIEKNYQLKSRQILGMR
run.description: Kinase profiling (radiometric filter-binding)
Format: biochemical
condition.label: NEK2 (letter lost), 1 µM inhibitor; read-out: Residual activity, %
Entries whose remaining activity at 1 µM is below 90% take true; entries at or above 90% take false.

molecule	class.assignment
N=C(N)NCCC[C@@H](NC(=O)CNC(=O)[C@@H](CCCNC(=N)N)NC(=O)[C@@H](CCCNC(=N)N)NC(=O)CCCCCCCNCc1nc2c(sc3ccc(Br)cc32)c(=O)[nH]1)C(=O)N[C@H](CCCCN)C(N)=O [Compound 2, BBTP-Aoc-(D-Arg)2-Gly-D-Arg-D-Lys-NH2]	false

Please state whether remaining activity at 1 µM is below 90% for N=C(N)NCCC[C@@H](NC(=O)CNC(=O)[C@@H](CCCNC(=N)N)NC(=O)[C@@H](CCCNC(=N)N)NC(=O)CCCCCCCNCc1nc2c(sc3cc(Br)cnc32)c(=O)[nH]1)C(=O)N[C@H](CCCCN)C(N)=O [Compound 1, BPTP-Aoc-(D-Arg)2-Gly-D-Arg-D-Lys-NH2]
false

Please state whether remaining activity at 1 µM is below 90% for N=C(N)NCCC[C@@H](NC(=O)CCCCCNC(=O)Cn1cnc2c(I)c(I)c(I)c(I)c21)C(=O)N[C@H](CCCNC(=N)N)C(=O)N[C@H](CCCNC(=N)N)C(=O)N[C@H](CCCNC(=N)N)C(=O)N[C@H](CCCNC(=N)N)C(=O)N[C@H](CCCNC(=N)N)C(=O)N[C@H](CCCCN)C(N)=O [ARC-3125, TIBI-CH2-C(=O)-Ahx-(D-Arg)6-D-Lys-NH2]
true
